Tested on: cats
Experiment: hemodynamics and activity of intact heart in cats under anesthesia
Assay type: in vivo
Details: cats, 1.0 mg/kg i.v., after 10 min
Reported Mean blood pressure, change from basal level values are given for each entry in this list.

These solved cases illustrate the format of a correct answer.
CCN(CC)CCSc1nc2cc(C)c(C)cc2[nH]1.Cl.Cl [XXIII, reference compound]; +3.8 ± 3.2%
CCOc1ccc2nc(SCCN(CC)CC)[nH]c2c1; −6.8 ± 2.5 %
CCOc1ccc2nc(SCCN(C)C)[nH]c2c1; −7.8 ± 5.7%

Okay, now this molecule:
For the molecule shown here, CN(C)CCSc1nc2ccccc2n1CCc1ccccc1 , give the reported Mean blood pressure, change from basal level.
+1.7 ± 1.2%

###

Tested on: cats
Assay: hemodynamics and activity of intact heart in cats under anesthesia
Type: in vivo
Details: cats, 1.0 mg/kg i.v., after 10 min
Measurement label: Mean blood flow accelaration (aortic), change from basal level (%)
Dear colleague, please return just the value in %, with no unit written.

CN(C)CCSc1nc2ccccc2n1CCc1ccccc1; −0.6

Turning now to a further compound:
Dear colleague, I am looking for the recorded Mean blood flow accelaration (aortic), change from basal level of the following compound: CCOc1ccc2nc(SCCN(C)C)[nH]c2c1
−5.2

###

Test system: male outbred mice
Assay: potentiation of sleep induced by sodium thiopental
Format: in vivo
Details: 10.0 mg/kg i.p. 30 min before thiopental 70 mg/kg i.p.
Measured duration of sleep after sodium thiopental accompanies every entry in the list below.
Respond numerically; units are min and should not be typed.

C=CCSc1nc2ccc(OCC)cc2[nH]1; 45.1
Cc1cc2nc(SCCN3CCOCC3)[nH]c2cc1C; 74.7
Cc1cc2nc(SCCN3CCCCC3)[nH]c2cc1C; 70.6

For the next question, use this compound.
# input compound: CCOc1ccc2nc(SCCN3CCOCC3)[nH]c2c1 ; wanted: its duration of sleep after sodium thiopental
92.4

###

Test system: Balb/c mice
Assay: open-field test, Balb/c mice (passive type of emotional-stress reaction)
Assay type: in vivo
Conditions: 1.0 mg/kg i.p., M ± mx
# note: boundary value 0.9 maps to NO; Central activity (crossings) below it maps to YES

Here's what some known entries look like.
Cc1cc2nc(SCCN3CCOCC3)[nH]c2cc1C; NO
CCOc1ccc2nc(SCCN3CCOCC3)[nH]c2c1; YES
Cc1cc2nc(SCCN3CCCC3)[nH]c2cc1C; YES

Could you please tell me whether Central activity (crossings) recorded for C=CCSc1nc2cc(C)c(C)cc2[nH]1 is less than 0.9?
YES

###

Test system: cats
Assay: hemodynamics and activity of intact heart in cats under anesthesia
Type: in vivo
Settings: cats, 1.0 mg/kg i.v., after 5 min
Measurement label: Cardiac volume, change from basal level (%)
Just the number in %, nothing appended.

CN(C)CCSc1nc2ccccc2n1CCc1ccccc1; −3.9

Turning now to a further record.
Cardiac volume, change from basal level for CCN(CC)CCSc1nc2cc(C)c(C)cc2[nH]1.Cl.Cl [XXIII, reference compound] ?
−0.6

###

System: outbred male mice
Assay: rotarod test (myorelaxant activity)
Format: in vivo
Settings: 20.0 mg/kg, cut-off 120 sec
Form field: time of remaining on the rotarod (one value per entry).

These solved cases illustrate the format of a correct answer.
Cc1cc2nc(SCCN3CCOCC3)[nH]c2cc1C [XV]; 120 + 0 sec
C=CCSc1nc2ccc(OCC)cc2[nH]1 [IV, 2-Allylthio-5-ethoxybenzimidazole]; 120 + 0 sec
Cc1cc2nc(SCCN3CCCCC3)[nH]c2cc1C [XIV]; 120 + 0 sec

# query: time of remaining on the rotarod of entry CCOc1ccc2nc(SCCN3CCOCC3)[nH]c2c1 [XII]
118.8 ± 1.6 s

###

Test system: aconitine arrhythmia
Assay: animal or person
Format: in vivo, rats
Settings: LD50 i.v. / ED50 aconitine arrhythmia
LD50/ED50 (antiarrhythmic index): recorded values
The reply should be a number, written without any unit.

CCOC(=O)Nc1ccc2c(c1)N(C(=O)CCN1CCOCC1)c1ccccc1S2 [Etmosin]; 58.6

Hello, I am looking for reported LD50/ED50 (antiarrhythmic index) with aconitine arrhythmia for CCN(CC)CCNC(=O)c1ccc(N)cc1 [Novocainamide, novocainamide, reference compound] . Could you help?
2.7

Query for aconitine arrhythmia: what LD50/ED50 (antiarrhythmic index) does the record show for CCOC(=O)Nc1ccc2c(c1)N(C(=O)CN(C)C)c1ccccc1CC2 [Bonnecor, bonnecor, reference compound] ?
50

###

The following molecules are shown together with reported Mean blood pressure, change from basal level values.
Test system: cats
Assay: hemodynamics and activity of intact heart in cats under anesthesia
Type: in vivo
Conditions: cats, 1.0 mg/kg i.v., after 2 min
Expressed in %, but write only the number.

CCN(CC)CCSc1nc2cc(C)c(C)cc2[nH]1.Cl.Cl [XXIII, reference compound]; −0.2

Reported Mean blood pressure, change from basal level for CCOc1ccc2nc(SCCN(C)C)[nH]c2c1 : what is it?
−1.8

###

System: calcium chloride arrhythmia
Assay: calcium chloride arrhythmia in concious rats
Format: in vivo
Conditions: Rattus norvegicus, iv, concious rats, given 2 min prior calcium chloride 250-300 mg/kg i.v.; read-out: Calcium chloride arrhythmia ED50 (mean effective dose)
The threshold is 1 mg/kg. Values of ED50 beneath it are tagged true; values meeting or exceeding it are tagged false.

CCN(CC)CC(=O)Nc1c(C)cccc1C [Lidocaine, lidocaine]; false
CC(C)NCC(O)COc1cccc2ccccc12 (stereo not drawn) [Propranolol, propranolol, reference compound]; true

Dear reviewer, please state whether CN(C)CCSc1nc2ccccc2n1CCc1ccccc1 [Compound XX] has ED50 strictly beneath 1 mg/kg.
false

Given CCN(CC)CCNC(=O)c1ccc(N)cc1 [Novocainamide, novocainamide, reference compound] , is recorded ED50 strictly lower than 1 mg/kg?
false

Identify whether the molecule COc1ccc(CCN(C)CCCC(C#N)(c2ccc(OC)c(OC)c2)C(C)C)cc1OC (stereo not drawn) [Verapamil, verapamil, reference compound] records ED50 below 1 mg/kg.
false

###

Listed here: items and their measured time of remaining on the rotarod.
Test system: outbred male mice
Experiment: rotarod test (myorelaxant activity)
Assay type: in vivo
Settings: 10.0 mg/kg, cut-off 120 sec

Reference set, count: 3
C=CCSc1nc2ccc(OCC)cc2[nH]1 [IV, 2-Allylthio-5-ethoxybenzimidazole]; 120 + 0 sec
Cc1cc2nc(SCCN3CCOCC3)[nH]c2cc1C [XV]; 120 + 0 sec
CCOc1ccc2nc(SCCN3CCOCC3)[nH]c2c1 [XII]; 120.0 + 0 sec

Checklist item: time of remaining on the rotarod tested on outbred male mice, entry Cc1cc2nc(SCCN3CCCCC3)[nH]c2cc1C [XIV] , value?
120 + 0 sec

###

Form field: duration of sleep after sodium thiopental (one value per entry).
System: male outbred mice
Experiment: potentiation of sleep induced by sodium thiopental
Format: in vivo
Settings: 5.0 mg/kg i.p. 30 min before thiopental 70 mg/kg i.p.
Give the value in min but do not write min after it.

Cc1cc2nc(SCCN3CCCCC3)[nH]c2cc1C [XIV]; 86.4
C=CCSc1nc2ccc(OCC)cc2[nH]1 [IV, 2-Allylthio-5-ethoxybenzimidazole]; 50.7
Cc1cc2nc(SCCN3CCOCC3)[nH]c2cc1C [XV]; 56.8

Turning now to a further molecule:
Suppose we examine the molecule CCOc1ccc2nc(SCCN3CCOCC3)[nH]c2c1 [XII] ; what duration of sleep after sodium thiopental value has been reported?
71.7

###

Tested on: male outbred mice
Test: potentiation of sleep induced by sodium thiopental
Assay type: in vivo
Conditions: 5.0 mg/kg i.p. 30 min before thiopental 70 mg/kg i.p.
Measurement label: latent time of sleep after sodium thiopental (s)
Write the answer as a number in s, unit excluded.

CCOc1ccc2nc(SCCN3CCOCC3)[nH]c2c1; 2.21
Cc1cc2nc(SCCN3CCOCC3)[nH]c2cc1C; 2.3
Cc1cc2nc(SCCN3CCCCC3)[nH]c2cc1C; 2.2

Find latent time of sleep after sodium thiopental (male outbred mice) for the entry C=CCSc1nc2ccc(OCC)cc2[nH]1
2.8

###

System: Balb/c mice
Experiment: open-field test, Balb/c mice (passive type of emotional-stress reaction)
Type: in vivo
Set-up: key: sum of all locomotor activity counts (crossings + rearings) in 3 min
Conditions: 0.5 mg/kg i.p., M ± mx
Recorded measurements of Total activity, one per entry
Form: value (number only, do not type unit).

Cc1cc2nc(SCCN3CCCC3)[nH]c2cc1C; 36.3
CCOc1ccc2nc(SCCN3CCOCC3)[nH]c2c1; 80.5
Cc1cc2nc(SCCN3CCOCC3)[nH]c2cc1C; 32.6

In the following, a different molecule is considered.
# query: Total activity of entry Cc1cc2nc(SCCN3CCCCC3)[nH]c2cc1C
49.4

###

Tested on: cats
Experiment: hemodynamics and activity of intact heart in cats under anesthesia
Type: in vivo
Settings: cats, 1.0 mg/kg i.v., after 20 min
Measurement label: Mean blood pressure, change from basal level (%)
Record the value in %, omitting the unit from your answer.

CCOc1ccc2nc(SCCN(C)C)[nH]c2c1 [VIII]; −12.0

--- query ---
What value of measured Mean blood pressure, change from basal level is listed for CCOc1ccc2nc(SCCN(CC)CC)[nH]c2c1 [Compound IX] ?
−1.9
